The entries below come with measured koff values attached.
target: T1, human serum albumin (HSA), full length (human, UniProt P02768 25-609); experiment: SPR off-rate, immobilized HSA, 500 nM Adnectin, 25 C
T1 construct: mature; Immobilized on CM5 chip (SPR) or coated on plates (ELISA)
T1 sequence (P02768 25-609): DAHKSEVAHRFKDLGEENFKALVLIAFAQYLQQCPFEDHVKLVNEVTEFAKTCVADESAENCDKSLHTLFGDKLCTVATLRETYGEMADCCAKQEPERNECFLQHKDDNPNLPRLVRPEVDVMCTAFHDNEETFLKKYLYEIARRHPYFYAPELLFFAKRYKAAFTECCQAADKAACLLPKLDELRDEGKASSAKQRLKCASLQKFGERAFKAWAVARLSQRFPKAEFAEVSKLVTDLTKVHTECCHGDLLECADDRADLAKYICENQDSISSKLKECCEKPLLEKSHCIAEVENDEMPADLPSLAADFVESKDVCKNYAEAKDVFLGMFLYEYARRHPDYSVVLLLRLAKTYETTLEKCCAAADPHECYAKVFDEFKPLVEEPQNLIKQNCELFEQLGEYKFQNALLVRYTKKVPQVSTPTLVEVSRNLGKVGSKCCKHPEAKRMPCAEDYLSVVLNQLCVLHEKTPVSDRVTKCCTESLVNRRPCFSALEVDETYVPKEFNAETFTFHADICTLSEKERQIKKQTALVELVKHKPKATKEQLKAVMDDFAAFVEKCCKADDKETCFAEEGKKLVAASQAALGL

{"BINDER": "ADX_6727_B09 (L38T/K85T) (designed binder, Full His6-tagged entry) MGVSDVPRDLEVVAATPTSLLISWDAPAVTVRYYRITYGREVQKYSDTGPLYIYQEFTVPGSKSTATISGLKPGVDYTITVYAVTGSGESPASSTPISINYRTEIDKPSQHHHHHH", "SCALE UNIT": "s⁻¹", "koff": 0.00921}
{"BINDER": "ADX_6727_B04 (Y35S/K85S) (designed binder, Full His6-tagged entry) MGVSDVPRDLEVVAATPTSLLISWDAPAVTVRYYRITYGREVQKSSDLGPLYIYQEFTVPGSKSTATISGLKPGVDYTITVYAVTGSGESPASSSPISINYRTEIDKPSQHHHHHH", "SCALE UNIT": "s⁻¹", "koff": 0.0011}
{"BINDER": "ADX_6727_H02 (I43S) (designed binder, Full His6-tagged entry) MGVSDVPRDLEVVAATPTSLLISWDAPAVTVRYYRITYGREVQKYSDLGPLYSYQEFTVPGSKSTATISGLKPGVDYTITVYAVTGSGESPASSKPISINYRTEIDKPSQHHHHHH", "SCALE UNIT": "s⁻¹", "koff": 0.0139}
{"BINDER": "ADX_6727_F04 (Y44A/K85A) (designed binder, Full His6-tagged entry) MGVSDVPRDLEVVAATPTSLLISWDAPAVTVRYYRITYGREVQKYSDLGPLYIAQEFTVPGSKSTATISGLKPGVDYTITVYAVTGSGESPASSAPISINYRTEIDKPSQHHHHHH", "SCALE UNIT": "s⁻¹", "koff": 0.00624}
